tested on: U2OS; test: Multiplex assay against U2OS; format: toxicity, cell-based; conditions: human, 24 h, 1 µM, compound concentration 1 uM, replicate 1
Metric Name: Population Mitochondria Different-Phenotype (%)

# Compound, Numeric Value
data = [
    ("Oc1c(CN2CCN(c3ccccn3)CC2)cc(Cl)c2cccnc12", 2),
    ("N#Cc1c(N)nc(SCc2csc(-c3ccc(Cl)cc3)n2)c(C#N)c1-c1ccc(OCCO)cc1", 4),
    ("O=C(O)c1cc2ccccc2c(Cc2c(O)c(C(=O)O)cc3ccccc23)c1O", 0),
    ("CCOc1c2c(c(OCC)c3ncccc13)CN(c1ccc(CS(=O)(=O)NC(=O)Cc3ccccc3OC)cc1C)C2=O", 0),
    ("CN1CCN2c3ncccc3Cc3ccccc3C2C1 (stereo not given)", 3),
]
